Target: α1B Human Adrenergic Receptor (Homo sapiens, UniProt P35368)
Construct: The entire coding region of α1B (1563 bp); expressed in transfected cells
Sequence (P35368 1-520): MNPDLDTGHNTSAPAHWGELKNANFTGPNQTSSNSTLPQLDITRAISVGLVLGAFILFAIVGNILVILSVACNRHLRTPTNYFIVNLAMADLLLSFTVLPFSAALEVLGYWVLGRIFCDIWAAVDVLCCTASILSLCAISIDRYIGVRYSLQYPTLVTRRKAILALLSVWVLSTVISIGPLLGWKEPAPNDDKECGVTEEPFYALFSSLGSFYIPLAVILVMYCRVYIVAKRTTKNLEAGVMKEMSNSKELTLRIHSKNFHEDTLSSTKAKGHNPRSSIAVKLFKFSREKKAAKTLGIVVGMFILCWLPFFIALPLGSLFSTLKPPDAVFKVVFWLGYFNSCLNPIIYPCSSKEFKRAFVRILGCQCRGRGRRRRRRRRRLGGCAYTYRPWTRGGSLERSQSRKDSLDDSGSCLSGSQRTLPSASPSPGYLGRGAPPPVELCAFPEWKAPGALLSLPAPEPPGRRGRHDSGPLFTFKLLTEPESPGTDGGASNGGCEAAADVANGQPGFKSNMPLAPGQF
Test: Radioligand binding, [3H]prazosin, cloned human α1B adrenergic receptor
Conditions: pKi alpha-1 1b, cloned human α1B receptor, LM(tk−) cell membranes
Description: The protocols for these experiments are given below. These cell lines were prepared by transfecting the cloned cDNA or cloned genomic DNA or constructs containing both genomic DNA and cDNA encoding the human α-adrenergic receptors as follows: α1B Human Adrenergic Receptor: […] Transfected cells from culture flasks were scraped into 5 ml of 5 mM Tris-HCl, 5 mM EDTA, pH 7.5, and lysed by sonication. […] Nonspecific binding was determined in the presence of 10 μM phentolamine. […]
pKi: −log10 of the molar value. Counter-ions that a name gives are not always drawn.
pKi overview

{"molecule": "CNC(=O)C1=C(C)NC(C)=C(C(=O)NCCCN2CCC(O)(c3ccccc3)CC2)C1c1ccc([N+](=O)[O-])cc1 (stereo not shown)", "pKi": 6.59}
{"molecule": "CCC1=C(C(N)=O)C(c2ccc([N+](=O)[O-])cc2)C(C(=O)NCCCN2CCC(C)(c3ccccc3)CC2)=C(CC)N1 (stereo not shown) [Example 106, hydrochloride hydrate]", "pKi": 6.03}
{"molecule": "CCC1=C(C(N)=O)C(c2ccc([N+](=O)[O-])cc2)C(C(=O)NCCCN2CCC(C#N)(c3ccccc3)CC2)=C(CC)N1 (single isomer, unassigned; (+)) [(+)-102]", "pKi": 5.91}
{"molecule": "CCC1=C(C(N)=O)C(c2ccc([N+](=O)[O-])cc2)C(C(=O)NCCCN2CCC(O)(c3ccccc3)CC2)=C(CC)N1 (stereo not shown) [Example 100, hydrochloride hydrate]", "pKi": 5.83}
{"molecule": "CCC1=C(C(N)=O)C(c2ccc(S(C)(=O)=O)cc2)C(C(=O)NCCCN2CCC(c3ccccc3)(c3ccccc3)CC2)=C(CC)N1 (stereo not shown)", "pKi": 6.12}
{"molecule": "CC1=C(C(=O)NCCCN2CCC(c3ccccc3)(c3ccccc3)CC2)C(c2ccc([N+](=O)[O-])cc2)C(C(=O)NC(C)C)=C(C)N1 (stereo not shown)", "pKi": 6.17}
{"molecule": "CCC1=C(C(=O)NCCCN2CCC(c3ccccc3)(c3ccccc3)CC2)C(c2cccc(OC)c2)C(C(=O)NCCCN2CCC(c3ccccc3)(c3ccccc3)CC2)=C(CC)N1", "pKi": 7.63}
{"molecule": "CCC1=C(C(N)=O)C(c2ccc([N+](=O)[O-])cc2)C(C(=O)NCCCN2CCC(C#N)(c3ccccc3)CC2)=C(CC)N1 (racemic) [(±)-102, hydrochloride hydrate]", "pKi": 5.79}
{"molecule": "CCC1=C(C(=O)NCCCN2CCC(c3ccccc3)(c3ccccc3)CC2)C(c2cccc(OC)c2)C(C(N)=O)=C(C)N1 (stereo not shown)", "pKi": 6.46}
{"molecule": "CCC1=C(C(=O)NC)C(c2ccc([N+](=O)[O-])cc2)C(C(=O)NCCCN2CCC(c3ccccc3)(c3ccccc3)CC2)=C(CC)N1 (stereo not shown)", "pKi": 5.98}
{"molecule": "CCNC(=O)C1=C(CC)NC(CC)=C(C(=O)NCCCN2CCC(c3ccccc3)(c3ccccc3)CC2)C1c1ccc([N+](=O)[O-])cc1 (stereo not shown)", "pKi": 6.29}
{"molecule": "CCC1=C(C(N)=O)C(c2ccc([N+](=O)[O-])cc2)C(C(=O)NCCCN2CCC(C#N)(c3ccccc3)CC2)=C(CC)N1 (single isomer, unassigned; (-)) [(−)-102]", "pKi": 5.50}
{"molecule": "CCC1=C(C(=O)OCCC#N)C(c2ccc([N+](=O)[O-])cc2)C(C(=O)NCCCN2CCC(c3ccccc3)(c3ccccc3)CC2)=C(COCCN=[N+]=[N-])N1 (stereo not shown)", "pKi": 7.48}
{"molecule": "CCC1=C(C(=O)NCCCN2CCC(c3ccccc3)(c3ccccc3)CC2)C(c2ccc([N+](=O)[O-])cc2)C(C(=O)NC)=C(COCCN=[N+]=[N-])N1 (stereo not shown)", "pKi": 6.45}
{"molecule": "COc1cccc(C2C(C(N)=O)=C(C)NC(C)=C2C(=O)NCCCN2CCC(c3ccccc3)(c3ccccc3)CC2)c1 (stereo not shown)", "pKi": 6.25}
{"molecule": "COc1ccc(C2(c3ccccc3)CCN(CCCNC(=O)C3=C(C)NC(C)=C(C(N)=O)C3c3ccc([N+](=O)[O-])cc3)CC2)cc1 (stereo not shown) [Example 98, hydrochloride]", "pKi": 6.52}
{"molecule": "CCC1=C(C(=O)NCCCN2CCC(c3ccccc3)(c3ccccc3)CC2)C(c2ccc([N+](=O)[O-])cc2)C(C(N)=O)=C(COCCN=[N+]=[N-])N1 (stereo not shown)", "pKi": 6.61}
{"molecule": "CC1=C(C(=O)NCCCN2CCC(c3ccccc3)(c3ccccc3)CC2)C(c2ccc([N+](=O)[O-])cc2)C(C(=O)OCCC#N)=C(C)N1 (stereo not shown)", "pKi": 6.86}
{"molecule": "CCC1=C(C(=O)NCCCN2CCC(c3ccccc3)(c3ccccc3)CC2)C(c2ccc([N+](=O)[O-])cc2)C(C(=O)NC(C)C)=C(CC)N1 (stereo not shown)", "pKi": 6.41}
{"molecule": "CCNC(=O)C1=C(COCCN=[N+]=[N-])NC(CC)=C(C(=O)NCCCN2CCC(c3ccccc3)(c3ccccc3)CC2)C1c1ccc([N+](=O)[O-])cc1 (stereo not shown)", "pKi": 6.59}
{"molecule": "CCCC1=C(C(=O)O)C(c2ccc([N+](=O)[O-])cc2)C(C(=O)NCCCN2CCC(c3ccccc3)(c3ccccc3)CC2)=C(CCC)N1 (stereo not shown)", "pKi": 6.39}
{"molecule": "CC1=C(C(N)=O)C(c2ccc(S(C)(=O)=O)cc2)C(C(=O)NCCCN2CCC(c3ccccc3)(c3ccccc3)CC2)=C(C)N1 (stereo not shown)", "pKi": 5.84}
{"molecule": "CCC1=C(C(=O)NCCCN2CCC(c3ccccc3)(c3ccccc3)CC2)C(c2ccc([N+](=O)[O-])cc2)C(C(=O)OC(C)(C)C)=C(COCCN=[N+]=[N-])N1 (stereo not shown)", "pKi": 6.85}
{"molecule": "CCC1=C(C(N)=O)C(c2ccc(S(C)(=O)=O)cc2)C(C(=O)NCCCN2CCC(c3ccccc3)(c3ccccc3)CC2)=C(C)N1 (stereo not shown)", "pKi": 5.75}
{"molecule": "CCNC(=O)C1=C(C)NC(C)=C(C(=O)NCCCN2CCC(c3ccccc3)(c3ccccc3)CC2)C1c1ccc([N+](=O)[O-])cc1 (stereo not shown)", "pKi": 6.07}

Taken from patent US6608086B2.
